Origin of values: ChEMBL document CHEMBL1156332

Measured GI50 values are reported for all entries that follow.
- System: ACHN
- measurement-protocol: Growth inhibition of human ACHN cells after 48 hrs by sulforhodamine B assay
- Assay type: functional
Note: unit nM is implicit; provide only the numeric part.

Some compounds with known GI50 results, for comparison:
structure | GI50, nM
CC1=NN(C(=O)c2nn(-c3ccc(Cl)cc3)cc2O)C(=O)C1 | 880
Cc1cc(C)n(C(=O)c2nn(-c3ccc(Cl)cc3)cc2O)n1 | 3770
Cc1c2c(nn1C(=O)c1nn(-c3ccc(Cl)cc3)cc1O)-c1ccccc1CC2 | 48
N#Cc1cnn(C(=O)c2nn(-c3ccc(Cl)cc3)cc2O)c1N | 320
O=C1CC(=O)N(C(=O)c2nn(-c3ccc(Cl)cc3)cc2O)N1 | 580

INPUT: Which GI50 is listed for O=C(c1nn(-c2ccc(Cl)cc2)cc1O)n1nc(-c2ccco2)cc1C(F)(F)F ?
OUTPUT: 2530
